Molecular target: soluble guanylate cyclase (sGC) (Bos taurus, UniProt P16068+P19687)
Construct: The sGC employed had been isolated from bovine lung; from tissue; host or cells: bovine lung
Sequence (P19687 whole entry): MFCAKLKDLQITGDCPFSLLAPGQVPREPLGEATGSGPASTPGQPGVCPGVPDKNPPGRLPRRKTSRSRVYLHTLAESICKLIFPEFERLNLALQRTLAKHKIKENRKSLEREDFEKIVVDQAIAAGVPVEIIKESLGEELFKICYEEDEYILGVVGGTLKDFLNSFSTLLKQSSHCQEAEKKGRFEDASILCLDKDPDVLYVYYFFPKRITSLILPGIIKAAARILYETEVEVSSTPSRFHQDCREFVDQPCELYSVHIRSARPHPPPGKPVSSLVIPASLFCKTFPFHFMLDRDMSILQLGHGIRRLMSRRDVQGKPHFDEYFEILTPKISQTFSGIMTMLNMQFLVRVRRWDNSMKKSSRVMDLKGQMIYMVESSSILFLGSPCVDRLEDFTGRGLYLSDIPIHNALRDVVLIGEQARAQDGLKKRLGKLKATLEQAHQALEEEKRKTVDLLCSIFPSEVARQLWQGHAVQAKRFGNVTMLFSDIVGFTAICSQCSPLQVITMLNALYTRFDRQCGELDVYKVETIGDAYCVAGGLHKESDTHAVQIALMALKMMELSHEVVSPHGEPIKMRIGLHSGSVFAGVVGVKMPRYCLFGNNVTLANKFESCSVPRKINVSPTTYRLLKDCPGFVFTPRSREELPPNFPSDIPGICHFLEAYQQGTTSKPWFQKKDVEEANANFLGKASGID
Sequence (P16068 whole entry): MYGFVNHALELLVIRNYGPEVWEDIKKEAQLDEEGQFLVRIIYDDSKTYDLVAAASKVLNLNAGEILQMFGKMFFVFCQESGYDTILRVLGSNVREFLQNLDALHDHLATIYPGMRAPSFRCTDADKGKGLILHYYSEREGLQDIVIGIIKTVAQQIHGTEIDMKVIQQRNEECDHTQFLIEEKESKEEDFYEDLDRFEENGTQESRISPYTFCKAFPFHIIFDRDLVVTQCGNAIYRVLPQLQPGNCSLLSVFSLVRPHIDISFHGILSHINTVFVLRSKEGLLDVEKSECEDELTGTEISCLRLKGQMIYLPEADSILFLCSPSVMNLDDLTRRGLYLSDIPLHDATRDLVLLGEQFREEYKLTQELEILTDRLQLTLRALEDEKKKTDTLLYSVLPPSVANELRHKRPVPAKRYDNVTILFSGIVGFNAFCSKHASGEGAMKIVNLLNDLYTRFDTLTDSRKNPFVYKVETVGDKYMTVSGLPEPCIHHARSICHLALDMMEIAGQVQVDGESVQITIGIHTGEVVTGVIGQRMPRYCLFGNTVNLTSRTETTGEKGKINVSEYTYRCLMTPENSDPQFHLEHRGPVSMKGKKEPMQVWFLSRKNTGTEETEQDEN
Experiment: Activation of soluble guanylate cyclase (cGMP enzyme immunoassay)
Type: biochemical
Settings: sGC isolated from bovine lung; test substance 50 μM; 5% DMSO; 37° C., 15 to 20 minutes; [cGMP]test substance/[cGMP]control (basal enzyme activity)
Property: n-fold stimulation at c = 50 μM (fold)

Value lookup for n-fold stimulation at c = 50 μM; key = Clc1ccc(-c2nc3c(c(NC4CCCC4)n2)CCC3)cc1 [Example 15]
7

(P) CCCCNc1nc(-c2ccc(Cl)cc2)nc2c1CCC2 [Example 30]
(Q) O[C@H]1CC[C@H](Nc2nc(-c3ccc(Cl)cc3)nc3c2CCC3)CC1 [Example 34]
(R) Cc1ccc(-c2nc3c(c(NC4CCCC4)n2)CCC3)cc1 [Example 41]
(S) Cc1ccc(-c2nc3c(c(N[C@H]4CC[C@H](O)CC4)n2)CCC3)cc1 [Example 43]
Given 4 compounds, produce a descending ranking by n-fold stimulation at c = 50 μM. // format: requested-order list of labels
Q, S, R, P

(A) Clc1cc(Cl)cc(-c2nc3c(c(NC4CCCC4)n2)CCC3)c1 [Example 50]
(B) CCN(CC)c1nc(-c2ccc(Cl)cc2)nc2c1CCC2.Cl [Example 26]
Determine, for A and B , which has the greater value of n-fold stimulation at c = 50 μM. Returns: label corresponding to the selected item.
A
(A: 8 fold, B: 5 fold)
